From: patent US10533034B2

Tested on: iNKT TCR of DN3A4-1.2 Vα14+ iNKT hybridoma cells
Assay: Binding avidity of mCD1d-loaded glycolipids to Vα14+ iNKT cells (ternary interaction)
Set-up: species or system mouse
Details: complexed with mCD1d; Scatchard transformation; flow cytometry; read-out: KD of ternary complex, mCD1d-glycolipid toward iNKT TCR
Experimental: (3A) DN3A4-1.2 Vα14+ iNKT hybridoma cells and (3B) 7DW8-5-expanded Vα24^+ iNKT cells were incubated with various concentrations of the indicated dimeric mCD d-glycolipid and hCD1d-glycolipid complexes for 30 min at 4° C., respectively. The level of bound complexes at the indicated concentration was detected by anti-mIgG1 secondary antibody and analyzed by flow cytometry. […] KD values in mice (3C) and humans (3D) were calculated from Scatchard transformation of the plot (3A) and 3B), respectively. […]
measurement.name: Kd
Provide a numeric answer, followed by its unit.

These recorded examples may help you get a feel for the data.
- molecule: "CC[C@@H](O)[C@@H](O)[C@H](CO[C@H]1OC(CO)[C@@H](O)C(O)C1O)NC(=O)Cc1ccc(Oc2ccc(F)cc2)cc1 (stereo partly shown)"
  value.observed: "7.96 nM"
- molecule: "CCC(=O)N[C@@H](CO[C@H]1OC(CO)[C@@H](O)C(O)C1O)[C@H](O)[C@H](O)CC (stereo partly shown)"
  value.observed: "5.14 nM"
- molecule: "CCCCCCCCCCCCCCC(O)C(O)C(COC1OC(CO)C(O)C(O)C1O)NC(=O)CCCCCCCCCCc1ccc(Oc2ccc(F)cc2)cc1 (stereo not shown)"
  value.observed: "0.735 nM"

Consider now this further molecule.
Input: Write down Kd measured for item CCCCCCCCCCCCCCCCCCCCCCCCCC(=O)N[C@@H](CO[C@H]1O[C@H](CO)[C@H](O)[C@H](O)[C@H]1O)[C@H](O)[C@H](O)CCCCCCCCCCCCCC [Compound C1, α-Galactosyl ceramide, reference compound]
Output: 1.24 nM

---

Below, each entry is listed with its recorded pKd.
Molecular target: Vα24+/Vβ11+ iNKT TCR (Homo sapiens, UniProt A0A075B6N4+A0A0B4J240+P15813)
Sequence (P01848 whole entry): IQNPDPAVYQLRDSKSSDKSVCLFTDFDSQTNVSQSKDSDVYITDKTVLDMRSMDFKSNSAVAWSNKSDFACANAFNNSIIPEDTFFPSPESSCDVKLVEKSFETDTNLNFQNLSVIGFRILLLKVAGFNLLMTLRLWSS
Sequence (A0A075B6N4 22-114): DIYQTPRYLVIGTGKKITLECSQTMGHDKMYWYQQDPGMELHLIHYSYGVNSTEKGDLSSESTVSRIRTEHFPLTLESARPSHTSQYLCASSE
Sequence (P61769 21-119, further chain): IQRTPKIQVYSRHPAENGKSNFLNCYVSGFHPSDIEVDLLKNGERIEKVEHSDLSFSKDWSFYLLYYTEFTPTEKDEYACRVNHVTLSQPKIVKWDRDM
Sequence (A0A0B4J240 22-114): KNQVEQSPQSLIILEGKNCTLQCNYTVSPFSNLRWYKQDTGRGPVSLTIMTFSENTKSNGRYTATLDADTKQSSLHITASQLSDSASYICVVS
Sequence (P15813 20-301): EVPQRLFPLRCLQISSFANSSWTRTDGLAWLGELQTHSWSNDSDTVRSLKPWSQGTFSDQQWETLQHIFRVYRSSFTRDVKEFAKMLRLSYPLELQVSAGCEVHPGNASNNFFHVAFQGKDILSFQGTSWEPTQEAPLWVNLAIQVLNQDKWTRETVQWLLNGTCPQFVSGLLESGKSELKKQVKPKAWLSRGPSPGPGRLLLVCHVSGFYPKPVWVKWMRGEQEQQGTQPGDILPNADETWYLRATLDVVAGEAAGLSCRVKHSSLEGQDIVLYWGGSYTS
Test: Binding avidity of hCD1d-loaded glycolipids with Vα24+ iNKT cells (ternary interaction)
Details: in complex with hCD1d; Scatchard transformation; read-out: KD of ternary complex, hCD1d-glycolipid toward Vα24+/Vβ11+ iNKT TCR
In simple prose, pKd is minus the logarithm base ten of a concentration in moles per litre.

- molecule: "CCCCCCCCCCCCCCCCCCCCCCCCCC(=O)N[C@@H](CO[C@H]1O[C@H](CO)[C@H](O)[C@H](O)[C@H]1O)[C@H](O)[C@H](O)CCCCCCCCCCCCCC [Compound C1, α-Galactosyl ceramide, reference compound]"
  measurement.name: "pKd"
  value.observed: 7.78

Input: Write down pKd measured for item CCCCCCCCCCCCCCC(O)C(O)C(COC1OC(CO)C(O)C(O)C1O)NC(=O)CCCCCCCCCCc1ccc(Oc2ccc(F)cc2)cc1 (stereo not drawn)
Output: 9.30

Input: Write down pKd measured for item CC[C@@H](O)[C@@H](O)[C@H](CO[C@H]1OC(CO)[C@@H](O)C(O)C1O)NC(=O)Cc1ccc(Oc2ccc(F)cc2)cc1 (stereo partly drawn)
Output: 9.42

Input: Write down pKd measured for item CCC(=O)N[C@@H](CO[C@H]1OC(CO)[C@@H](O)C(O)C1O)[C@H](O)[C@H](O)CC (stereo partly drawn)
Output: 8.07

Input: Write down pKd measured for item CC[C@@H](O)[C@@H](O)[C@H](CO[C@H]1OC(CO)[C@@H](O)C(O)C1O)NC(=O)Cc1ccc(F)cc1 (stereo partly drawn)
Output: 9.32

Input: Write down pKd measured for item CCCCCCCCCCCCCC[C@@H](O)[C@@H](O)[C@H](CO[C@H]1O[C@H](CO)[C@H](O)[C@H](O)[C@H]1O)NC(=O)CCCCCCCCCCc1ccc(F)cc1 [Compound 7DW8-5, reference compound]
Output: 9.11
